System: DeltatarO mutant
Test: S. aureus survival, RN4220 and DeltatarO strains – OD600, teichoic acid synthesis inhibitors, primary screen (AID 463173)
Conditions: S. aureus RN4220 wild type/DeltatarO growth, OD600, 18 h, stronger effect = lower value, screened at 18.75 µg/mL (by protocol)
Screen size: about 52,000 compounds; about 4,300 (8.3%) were called active. Many of the other results were omitted from the sample, so actives are more common in it than they were.
Could you please mark satisfied for values of survival below 60% and not satisfied for values at or above it?

Exercise: survival under 60%? Item: Cc1ccc(-n2ncc(C(=O)N3CCN(C4CCCCC4)CC3)c2C2CCN(C(=O)OC(C)(C)C)CC2)cc1C
Solution: not satisfied

Exercise: survival under 60%? Item: Cc1cc(NC(=O)c2cc(-c3ccc(Cl)cc3)on2)nn1Cc1ccc(Cl)cc1
Solution: not satisfied

Exercise: survival under 60%? Item: CCc1nnc(NC(=O)c2c(O)c3ccccc3n(C)c2=O)s1
Solution: satisfied

Exercise: survival under 60%? Item: CC(C)Cn1c(-c2ccc(S(=O)(=O)N3CCCC3)cc2)csc1=Nc1ccccc1
Solution: satisfied

Exercise: survival under 60%? Item: c1ccc(-c2cn(-c3ccccc3)c3ncnc(N4CCN(c5ccccc5)CC4)c23)cc1
Solution: not satisfied

Exercise: survival under 60%? Item: Cc1ccc(-c2cc(C(=O)NCc3cnn(C)c3C)c3ccccc3n2)cc1C
Solution: satisfied

Exercise: survival under 60%? Item: Cc1ccc(NC(=O)c2c(NC(=O)C(F)(F)F)sc3c2CCCCC3)cc1
Solution: satisfied

Exercise: survival under 60%? Item: Cc1cc(NC(=O)c2cc(-c3ccc(Br)cc3)on2)nn1Cc1ccc(Cl)cc1
Solution: not satisfied

Exercise: survival under 60%? Item: O=C(CSc1nc2ccccc2nc1Cc1ccc(Cl)cc1)N1CCN(c2ccccc2F)CC1
Solution: not satisfied

Exercise: survival under 60%? Item: COc1ccccc1NC(=O)c1c(NCc2sccc2C)sc2c1CCCCC2
Solution: not satisfied

Exercise: survival under 60%? Item: Cc1cc(NC(=O)c2cc(-c3ccc(Cl)c(Cl)c3)on2)n(-c2ccccc2)n1
Solution: not satisfied

Exercise: survival under 60%? Item: CCCn1c(-c2ccc(S(=O)(=O)N3CCOCC3)cc2)csc1=Nc1ccc(OCC)cc1
Solution: not satisfied

Exercise: survival under 60%? Item: O=C(Nc1ccc(Br)cc1)Nc1nc2c(s1)CCCCCC2
Solution: not satisfied

Exercise: survival under 60%? Item: Cc1ccc(Cn2ccc(NC(=O)c3cc(-c4ccc(Cl)c(Cl)c4)on3)n2)cc1
Solution: satisfied

----------
Tested on: DeltatarO mutant
Assay: S. aureus survival, RN4220 and DeltatarO strains – OD600, teichoic acid synthesis inhibitors, primary screen (AID 463173)
Conditions: S. aureus RN4220 wild type/DeltatarO growth, OD600, 18 h, stronger effect = lower value, screened at 18.75 µg/mL (by protocol)
In all, about 52,000 compounds went through this assay and about 4,300 (8.3%) were called active. What follows is part of a selection rich in actives, with near analogues and random picks from the rest.
experimental-readout: survival (%)
Dear colleague, please return just the value in %, with no unit written.

Exercise: # query: survival of entry COc1ccc(C(=O)Nc2nnc(S(=O)(=O)N(C)c3ccc(C)cc3)s2)cc1
Solution: 79

Exercise: # query: survival of entry O=S(=O)(NC1CCc2ccccc21)c1ccc(S(=O)(=O)N2CCCC2)cc1 (centres undefined)
Solution: 82

Exercise: # query: survival of entry O=C(CSc1nc2cc(C(=O)NC3CCCC3)ccc2c(=O)n1CC1CCCO1)c1cccc(Cl)c1 (centres undefined)
Solution: 20

Exercise: # query: survival of entry CC1=C(c2ccc(C)c(C)c2)S(=O)(=O)N(Cc2ccc(C(=O)NCc3ccc(C)cc3)cc2)C1=O
Solution: 92

Exercise: # query: survival of entry CCCn1c(=O)n(-c2ccccc2Cl)c(=O)c2sc3ccccc3c21
Solution: 95

Exercise: # query: survival of entry COc1ccc(-c2cn3nc(N4CCCC(C(=O)Nc5cc(C)ccc5C)C4)sc3n2)cc1 (centres undefined)
Solution: 76

Exercise: # query: survival of entry CCOC(=O)c1cccc(NC(=O)C2CCN(S(=O)(=O)c3cn(C)cn3)CC2)c1
Solution: 102

Exercise: # query: survival of entry O=C(NCc1ccccc1Br)c1ccc2c(c1)nc1n2CCOC1
Solution: -1

Exercise: # query: survival of entry CCCOc1ccc(CNC(=O)Cn2c(=O)oc3ccccc32)cc1
Solution: 80

Exercise: # query: survival of entry CCCC(=O)Nc1nnc(S(=O)(=O)N(C)c2ccccc2)s1
Solution: 108

Exercise: # query: survival of entry Cc1ccc(NC(=O)CSc2nccn2Cc2ccco2)cc1Cl
Solution: 87

Exercise: # query: survival of entry COc1ccc(C(=O)Nc2nnc(S(=O)(=O)N(C)c3ccc(Cl)cc3)s2)cc1OC
Solution: 83

Exercise: # query: survival of entry O=C(Nc1nnc(C(F)(F)F)s1)c1ccccc1
Solution: 24

Exercise: # query: survival of entry O=C(Nc1ccc(Cl)cc1)N1CCN(c2ccc3nnc(-c4ccccc4)n3n2)CC1
Solution: 72

Exercise: # query: survival of entry O=C(CSc1nc2cc(C(=O)NC3CCCC3)ccc2c(=O)n1CC1CCCO1)c1ccc(F)cc1 (centres undefined)
Solution: 96

Exercise: # query: survival of entry CS(=O)(=O)N(CC(=O)O)c1ccc(Cl)cc1
Solution: 105

Exercise: # query: survival of entry COc1ccc(C(=O)CSc2nc3cc(C(=O)NC4CCCC4)ccc3c(=O)n2CC2CCCO2)cc1 (centres undefined)
Solution: 95

Exercise: # query: survival of entry CC(C)Sc1ncc(Cl)c(C(=O)N(Cc2ccc(F)cc2)C2CCS(=O)(=O)C2)n1 (centres undefined)
Solution: 76

Exercise: # query: survival of entry O=c1sc2ccccc2n1CCCOc1ccccc1
Solution: 105

Exercise: # query: survival of entry CCOc1ccc(CNC(=O)c2ccc3c(c2)nc2n3CCOC2)cc1OC
Solution: 6

Exercise: # query: survival of entry Cc1ccc(-n2ncc(C(=O)NCCN3CCc4ccccc4C3)c2C2CCN(C(=O)OC(C)(C)C)CC2)cc1C
Solution: 99

Exercise: # query: survival of entry CCC(=O)Nc1cc(-c2cccc(C)c2)nn1-c1ccccc1
Solution: 83

Exercise: # query: survival of entry CC(C)c1cnc2c(c1SCC(=O)NCc1ccccc1)c(=O)n(C)c(=O)n2C
Solution: 77

Exercise: # query: survival of entry CCN1CCc2c(sc(NC(=O)c3ccc(S(=O)(=O)N(CCOC)CCOC)cc3)c2C(N)=O)C1
Solution: 69

----------
System: DeltatarO mutant
Test: S. aureus survival, RN4220 and DeltatarO strains – OD600, teichoic acid synthesis inhibitors, primary screen (AID 463173)
Details: S. aureus RN4220 wild type/DeltatarO growth, OD600, 18 h, stronger effect = lower value, screened at 18.75 µg/mL (by protocol)
In all, about 52,000 compounds went through this assay and about 4,300 (8.3%) were called active. The entries come from a sample that favours actives as a whole.
experimental-readout: survival (%)
Dear colleague, please return just the value in %, with no unit written.

Exercise: # query: survival of entry CCCNC(=O)c1ccc(Cn2c(SCC(N)=O)nc3ccccc3c2=O)cc1
Solution: 91

Exercise: # query: survival of entry CCN(CC)C(=O)c1ccccc1NC(=O)c1ccccc1
Solution: 92

Exercise: # query: survival of entry CC1(C)CC2(CC(C)(C)NC(=O)N2)NC(=O)N1
Solution: 89

Exercise: # query: survival of entry CCOc1ccccc1NC(=O)CSc1ncc2c(n1)-c1ccccc1N(CC)S2(=O)=O
Solution: 92

----------
I'd appreciate it if you could supply survival values for the items below.
Test system: DeltatarO mutant
Experiment: S. aureus survival, RN4220 and DeltatarO strains – OD600, teichoic acid synthesis inhibitors, primary screen (AID 463173)
Conditions: S. aureus RN4220 wild type/DeltatarO growth, OD600, 18 h, stronger effect = lower value, screened at 18.75 µg/mL (by protocol)
Screen size: about 52,000 compounds; about 4,300 (8.3%) were called active. The sample holds actives, similar compounds and a random draw of the others, so the mix is not that of the screen.

Exercise: # query: survival of entry COC(=O)CCNC(=O)NC(CCC(C)C)c1c(-n2cccc2)sc2c1CCN(C)C2 (stereo not drawn)
Solution: 75% (inactive)

Exercise: # query: survival of entry Cc1ccc(C2c3[nH]c4ccccc4c3CCN2C(=O)CSc2ccccc2)cc1 (stereo not drawn)
Solution: 69% (inactive)

Exercise: # query: survival of entry O=C(CSc1ccccc1)N1CCc2c([nH]c3ccccc23)C1c1ccc(F)cc1 (stereo not drawn)
Solution: 76% (inactive)

----------
Tested on: DeltatarO mutant
Assay: S. aureus survival, RN4220 and DeltatarO strains – OD600, teichoic acid synthesis inhibitors, primary screen (AID 463173)
Conditions: S. aureus RN4220 wild type/DeltatarO growth, OD600, 18 h, stronger effect = lower value, screened at 18.75 µg/mL (by protocol)
About 4,300 (8.3%) of roughly 52,000 compounds were called active. This is one part of a sample in which actives are shown more often than they occur.
experimental-readout: survival (%)
Dear colleague, please return just the value in %, with no unit written.

Exercise: # query: survival of entry CCOc1ccccc1CNC(=O)c1cccn1-c1nnc(N2CCCCC2)s1
Solution: 131

Exercise: # query: survival of entry COc1cccc(C(=O)N2c3ccc(C)cc3C(C)(c3ccccc3)CC2(C)C)c1 (configuration not stated)
Solution: -5

Exercise: # query: survival of entry COc1ccc(NC(=O)c2cccn2-c2nnc(N3CCCCC3)s2)c(OC)c1
Solution: 98

Exercise: # query: survival of entry CCS(=O)(=O)N1CC(=O)N(c2ccc(Cl)cc2)C(C)(C(=O)NC2CCCCC2)C1 (configuration not stated)
Solution: 96

Exercise: # query: survival of entry O=S(=O)(Nc1ccc(-c2ccc(N3CCCC3)nn2)cc1)c1ccc(Cl)cc1
Solution: 102

Exercise: # query: survival of entry OC(CNCc1ccccn1)COc1ccc(OCC(O)CNCc2ccccn2)cc1 (configuration not stated)
Solution: 96

Exercise: # query: survival of entry NC(Cc1c[nH]c2ccccc12)C(=O)NCc1ccccc1 (configuration not stated)
Solution: 92
